// data source = PubChem BioAssay (NCI)

System: SNB-75 CNS
Assay: NCI tumour cell line growth inhibition, 48 h; in the data active = GI50 below about 0.43 µM; inactive = the rest
Hello, when you answer, please use one of the following outcomes: active, inactive

Lab log entry: COCCOCCOCc1n(Cc2ccc3ccccc3c2)c2ccccc2[n+]1Cc1ccc2ccccc2c1 — outcome as called in the assay? active

Would you mind doing CCN(CC)c1c(-c2ccccc2)n[nH]c1C(=O)OC as well? inactive

Same lookup for O=C(O)c1cc2ccccc2c2c3c(ccc12)OCO3 , please. inactive

One more compound: O=C1Nc2cc(-c3cccc(O)c3)ccc2/C1=C/c1ccc[nH]1 inactive

// query: COc1cc(Cl)cc(-c2nn(-c3cccc(NC(=O)Nc4cccc(C(F)(F)F)c4)c3)cc2-c2ccncc2)c1 inactive

###

# Lookup of reported TGI keyed by entry
Tested on: KM12 colon
Test: NCI tumour cell line growth inhibition, 48 h

COC(=O)CCC1=NCC(C)(C)O1 :: > 10 µM

Which measured TGI value corresponds to COc1ccc(C2C(C#N)=C(S)N(C3OC(COC(C)=O)C(OC(C)=O)C(OC(C)=O)C3OC(C)=O)C(C)=C2C(C)=O)cc1 (stereo not drawn) ? > 100 µM

// same read-out, input: CC(C)(C)OC(=O)N1CC(CCl)c2ccc(O)cc21 (stereo not drawn) 4.6 µM

Cool, now Cc1cc(N(CCC#N)CCC#N)ccc1N=Nc1cc(Cl)ccc1Cl 30 µM

// same read-out, input: COC(=O)c1cc(OS(=O)(=O)C(F)(F)F)c(=O)n2c1CCCC2 > 100 µM

What do we get for O=C(CSCC(=O)N/N=C/c1ccccc1O)N/N=C\c1ccccc1O ? > 100 µM

Cool, now c1ccc(CN2CCc3[nH]c4ccccc4c3C2)cc1 45.9 µM

###

Consider the following compounds and their measured TGI readings.
System: SK-MEL-28 melanoma
Assay: NCI tumour cell line growth inhibition, 48 h

O=C(c1cccc2ccccc12)C1S(=O)(=O)OCCOS1(=O)=O :: > 100 µM
NC1C=NNC1=O (stereo not given) :: > 100 µM
Cc1c2n(c3ccccc13)S(=O)(=O)c1ccccc1-2 :: > 100 µM
CCCCCCCCCC[C@@H](O)[C@@H]1CC[C@@H]([C@@H]2CC[C@@H]([C@@H](O)CCCCCCCCCC[C@H](O)CC3=CC(C)OC3=O)O2)O1 (stereo not given in full) :: > 28.8 µM

Please look at the following compound next.
Observed TGI on SK-MEL-28 melanoma for COc1cc(-n2cc(-c3ccccc3)[nH]c2=O)cc(OC)c1OC , please. > 100 µM

###

Tested on: DLD-1 colon
Assay: NCI tumour cell line growth inhibition, 48 h
metric.name: TGI

State the recorded TGI for this entry: O=C1CC(c2c(-c3ccccc3)[nH]c3ccccc23)C(=O)N1c1ccccc1 (stereo unspecified) > 100 µM

###

# Lookup of reported TGI keyed by entry
Tested on: RPMI-8226 leukemia
Experiment: NCI tumour cell line growth inhibition, 48 h

Known results for compounds:
CCCN(CCC)C(=S)N/N=C(/C)c1ccccc1O :: > 57.7 µM
CNCCCNC(=S)Cn1cc(C)c(=O)[nH]c1=O :: > 100 µM
COc1ccc(C(=O)O[C@H]2CC[C@@]3(C)[C@@H]4CC[C@H]5[C@]6(O)C[C@H](O)[C@@]7(O)[C@@H](CN8C[C@@H](C)CC[C@H]8[C@@]7(C)O)[C@]6(O)C[C@@]53OC24O)cc1OC :: > 100 µM
COC1CC(OC2CCC3(C)C(=CCC4C3C(OC(C)=O)C(OC(=O)CC(C)C)C3(C)C(C(C)=O)CCC43O)C2)OC(C)C1OC1CC(OC)C(OC2CC(OC)C(OC3OC(C)C(O)C(OC)C3O)C(C)O2)C(C)O1 (stereo not drawn) :: 45.8 µM
CC(C)=NNc1snnc1C(N)=O :: > 100 µM
CC[C@@]1(OC(=O)CN(C)C)C(=O)OCc2c1cc1n(c2=O)Cc2cc3c(N)cccc3nc2-1 :: 0.541 µM
Cc1cccc(C)c1NC(=O)CCc1nnc2s/c(=C\c3ccc(N(C)C)cc3)c(=O)n12 :: > 100 µM

Read the next record carefully.
Kindly state the measured TGI obtained for Clc1cc2ccccc2c2ccccc12 with RPMI-8226 leukemia. > 100 µM
